# ASSAYED_SYSTEM: Cytochrome P450 3A4 (Homo sapiens, UniProt P08684)
# Sequence (P08684 whole entry): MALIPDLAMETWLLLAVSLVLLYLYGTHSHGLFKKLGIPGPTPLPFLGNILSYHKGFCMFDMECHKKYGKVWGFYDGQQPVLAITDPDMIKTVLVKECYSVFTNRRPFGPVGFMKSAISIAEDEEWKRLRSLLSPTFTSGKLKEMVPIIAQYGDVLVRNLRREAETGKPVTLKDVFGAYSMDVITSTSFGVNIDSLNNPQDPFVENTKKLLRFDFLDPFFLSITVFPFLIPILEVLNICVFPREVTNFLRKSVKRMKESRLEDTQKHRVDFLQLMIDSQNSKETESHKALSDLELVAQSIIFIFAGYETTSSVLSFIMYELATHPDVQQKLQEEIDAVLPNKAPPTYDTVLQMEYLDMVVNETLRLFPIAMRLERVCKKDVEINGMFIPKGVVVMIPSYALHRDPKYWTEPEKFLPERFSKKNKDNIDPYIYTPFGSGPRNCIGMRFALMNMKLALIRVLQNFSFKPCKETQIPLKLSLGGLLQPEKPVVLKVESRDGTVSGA
# EXPERIMENT_DESCRIPTION: Inhibition of CYP3A4 after 30 mins by fluorometric assay
# Type: ADME
MEASURED_METRIC: IC50

>  <MOLECULE>
COc1cc2c(cc1O)[C@H](c1ccc(O)c(O)c1)[C@@H](CO)[C@H](CO)C2

>  <MEASURED_METRIC>
IC50

>  <VALUE_OBSERVED>
Not Active

$$$$
>  <MOLECULE>
COc1cc2c(cc1O)C(=O)[C@@H](CO)[C@H](CO)C2

>  <MEASURED_METRIC>
IC50

>  <VALUE_OBSERVED>
Not Active

$$$$
>  <MOLECULE>
COc1cc([C@@H](O)[C@@H]2CO[C@H](c3ccc(O)c(OC)c3)[C@H]2CO)ccc1O

>  <MEASURED_METRIC>
IC50

>  <VALUE_OBSERVED>
Not Active

$$$$
>  <MOLECULE>
COc1cc([C@H](O)[C@H]2CO[C@H](c3ccc(O)c(O)c3)[C@H]2CO)ccc1O [(7R)-7-HYDROXYTAXIRESINOL]

>  <MEASURED_METRIC>
IC50

>  <VALUE_OBSERVED>
Not Active

$$$$
